Consider the following molecules; for each one, report its Time constant.
Target: T-type calcium channels (α1G) (Homo sapiens, UniProt O43497)
Construct: expressed in transfected cells
Sequence (O43497 whole entry): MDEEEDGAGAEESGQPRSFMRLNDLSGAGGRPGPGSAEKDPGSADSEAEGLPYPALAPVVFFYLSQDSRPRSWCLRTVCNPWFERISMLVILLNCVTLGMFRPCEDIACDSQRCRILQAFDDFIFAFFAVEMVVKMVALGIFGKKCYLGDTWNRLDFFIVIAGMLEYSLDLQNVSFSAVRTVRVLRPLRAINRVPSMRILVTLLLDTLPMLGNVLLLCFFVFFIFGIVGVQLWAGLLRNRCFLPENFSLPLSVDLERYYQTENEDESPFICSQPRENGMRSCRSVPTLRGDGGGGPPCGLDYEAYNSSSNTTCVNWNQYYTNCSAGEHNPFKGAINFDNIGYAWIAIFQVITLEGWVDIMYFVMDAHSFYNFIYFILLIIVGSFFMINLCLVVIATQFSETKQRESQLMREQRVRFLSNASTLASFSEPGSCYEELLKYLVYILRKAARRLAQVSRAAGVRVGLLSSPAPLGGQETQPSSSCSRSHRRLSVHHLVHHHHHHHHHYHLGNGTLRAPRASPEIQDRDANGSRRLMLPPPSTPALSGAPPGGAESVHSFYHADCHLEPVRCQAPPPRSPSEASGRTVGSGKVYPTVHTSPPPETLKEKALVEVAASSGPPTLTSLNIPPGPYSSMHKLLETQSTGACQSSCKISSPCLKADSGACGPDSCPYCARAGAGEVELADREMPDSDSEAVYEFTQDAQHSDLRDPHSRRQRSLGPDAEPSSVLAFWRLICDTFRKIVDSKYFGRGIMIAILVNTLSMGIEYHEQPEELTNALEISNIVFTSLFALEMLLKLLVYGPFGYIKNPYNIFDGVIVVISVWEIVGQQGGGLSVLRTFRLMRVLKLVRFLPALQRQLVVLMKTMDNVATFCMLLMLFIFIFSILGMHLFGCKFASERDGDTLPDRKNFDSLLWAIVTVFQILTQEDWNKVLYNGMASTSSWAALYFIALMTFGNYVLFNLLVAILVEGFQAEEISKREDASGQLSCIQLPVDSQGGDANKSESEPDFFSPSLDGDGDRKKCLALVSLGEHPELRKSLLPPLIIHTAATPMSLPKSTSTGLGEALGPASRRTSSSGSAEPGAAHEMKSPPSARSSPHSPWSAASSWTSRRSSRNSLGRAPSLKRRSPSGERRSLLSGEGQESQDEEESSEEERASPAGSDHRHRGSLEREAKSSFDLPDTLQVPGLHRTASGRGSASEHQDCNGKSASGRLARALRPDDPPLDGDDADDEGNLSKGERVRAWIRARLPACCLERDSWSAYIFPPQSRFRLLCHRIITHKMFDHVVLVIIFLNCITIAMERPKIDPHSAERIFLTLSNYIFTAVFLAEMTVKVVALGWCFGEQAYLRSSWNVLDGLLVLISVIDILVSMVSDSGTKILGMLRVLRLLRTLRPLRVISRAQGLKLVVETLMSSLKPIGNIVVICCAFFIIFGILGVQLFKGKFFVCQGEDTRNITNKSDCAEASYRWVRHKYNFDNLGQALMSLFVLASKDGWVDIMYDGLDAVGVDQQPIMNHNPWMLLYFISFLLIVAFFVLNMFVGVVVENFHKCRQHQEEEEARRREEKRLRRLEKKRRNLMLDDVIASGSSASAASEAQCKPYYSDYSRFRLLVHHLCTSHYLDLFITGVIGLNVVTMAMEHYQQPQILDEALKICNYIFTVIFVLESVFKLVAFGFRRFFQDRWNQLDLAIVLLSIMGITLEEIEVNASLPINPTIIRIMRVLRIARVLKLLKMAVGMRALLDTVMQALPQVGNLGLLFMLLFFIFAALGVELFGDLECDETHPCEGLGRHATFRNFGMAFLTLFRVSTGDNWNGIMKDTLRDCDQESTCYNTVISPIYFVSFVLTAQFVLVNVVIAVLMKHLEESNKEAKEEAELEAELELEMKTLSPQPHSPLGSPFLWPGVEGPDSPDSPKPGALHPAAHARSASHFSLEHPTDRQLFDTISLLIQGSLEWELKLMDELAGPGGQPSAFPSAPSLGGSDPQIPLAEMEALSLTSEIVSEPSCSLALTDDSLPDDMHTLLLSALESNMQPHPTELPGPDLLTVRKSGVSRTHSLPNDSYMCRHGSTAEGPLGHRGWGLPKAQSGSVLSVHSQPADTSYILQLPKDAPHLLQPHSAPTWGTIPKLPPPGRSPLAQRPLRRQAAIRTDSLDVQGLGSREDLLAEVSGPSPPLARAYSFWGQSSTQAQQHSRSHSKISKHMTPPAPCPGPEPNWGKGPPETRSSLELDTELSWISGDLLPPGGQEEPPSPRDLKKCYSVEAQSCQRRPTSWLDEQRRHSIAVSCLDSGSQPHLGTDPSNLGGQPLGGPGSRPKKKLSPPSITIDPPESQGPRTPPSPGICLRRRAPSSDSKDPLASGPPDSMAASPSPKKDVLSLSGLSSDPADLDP
Assay: Patch-clamp assay for T-channel blockage in HEK cells
Assay type: cell-based
Details: time course of T-channel blockage, 500 nM and 1 uM, preliminary numbers
One number for each entry, in min.

// for each molecule in input: emit Time constant
1. CCCCCCCCCCCCCCCc1cccc(OCC)c1C1C(C(=O)OCC)=C(C)NC(=S)N1C(=O)CC (stereo not shown) [PPK50]
2. CCCCCCCCCCCCCCCc1cccc(OC)c1C1NC(=O)NC(C)=C1C(=O)OCC (stereo not shown) [PPK22]
3. CCCCCCCCCCCCCCCc1cccc(OC(C)C)c1C1C(C(=O)OCC)=C(C)NC(=S)N1C(=O)CC (stereo not shown) [PPK51]
4. CCCCCCCCCCCCCCCc1cccc(OC(C)C)c1C1C(C(=O)OC)=C(C)NC(C)=C1C(=O)OC [PPK5]

Output:
1. 10
2. 1
3. 13
4. 8
